# Tested on: Calvarial osteoblast
# ASSAY_PROTOCOL: Anabolic activity in rat calvarial osteoblasts assessed as induction of alkaline phosphatase activity at 1 uM after 48 hrs in presence of beta-glycerophosphate and ascorbic acid by p-nitrophenyl phosphate substrate based assay (reference value: 1 to 1.21)
# Assay type: functional
For each of the compounds below, state its OD.

input: # value lookup — system Calvarial osteoblast, readout OD, item COC(=O)C1=C(C)NC2=C(C(=O)CC(C)(C)C2)C1c1cc(C(C)(C)C)c2oc(C(=O)c3ccc(OC)cc3)cc2c1 (centres undefined)
output: 1.25

input: Next up: CCC(C)c1cc(C=O)cc2cc(C(=O)c3ccc(C)cc3)oc12 (centres undefined)
output: 1.42

input: And for CCOC(=O)C1=C(C)NC2=C(C(=O)CCC2)C1c1cc(C(C)CC)c2oc(C(=O)c3ccc(OC)cc3)cc2c1 (centres undefined) ?
output: 1.37

input: Repeat for the following compound: CCOC(=O)C1=C(C)NC2=C(C(=O)CC(C)(C)C2)C1c1cc(C(C)CC)c2oc(C(=O)c3ccc(OC)cc3)cc2c1 (centres undefined)
output: 1.13
